Quick note: these are IC50 numbers for system: C-C chemokine receptor type 2 (Homo sapiens, UniProt P41597)
Sequence (P41597 whole entry): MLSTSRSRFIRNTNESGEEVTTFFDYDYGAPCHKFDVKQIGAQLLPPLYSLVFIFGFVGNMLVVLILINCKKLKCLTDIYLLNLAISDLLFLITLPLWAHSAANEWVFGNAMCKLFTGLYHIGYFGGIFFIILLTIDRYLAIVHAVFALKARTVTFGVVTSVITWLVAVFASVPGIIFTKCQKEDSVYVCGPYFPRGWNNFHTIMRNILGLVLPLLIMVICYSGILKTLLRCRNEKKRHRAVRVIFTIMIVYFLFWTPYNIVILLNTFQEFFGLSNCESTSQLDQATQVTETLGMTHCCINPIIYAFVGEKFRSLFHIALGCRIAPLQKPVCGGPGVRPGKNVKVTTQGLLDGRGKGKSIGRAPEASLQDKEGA
measure: IC50 (nM)

# count of solved cases: 2
>>> recorded_value("CCN(CC)CCCC(C)NC(=O)CCCc1cc(-c2cc(Cl)cc(Cl)c2)nn1-c1ccc2ccccc2c1 (stereo not given)")
6470
>>> recorded_value("O=C(CCc1cc(-c2cc(Cl)cc(Cl)c2)nn1-c1ccc2ccccc2c1)NCCCc1ccc2c(n1)NCCC2")
9330

P. CN(C)CCCCNC(=O)CCc1cc(-c2cc(Cl)cc(Cl)c2)nn1-c1ccc2ccccc2c1
Q. COC(=O)[C@H](Cc1cnc[nH]1)NC(=O)CCc1cc(-c2cc(Cl)cc(Cl)c2)nn1-c1ccc2ccccc2c1
R. COC(=O)[C@H](CCCN=C(N)N)NC(=O)CCNCc1cc(-c2cc(Cl)cc(Cl)c2)nn1-c1ccc2ccccc2c1
Task item: I would appreciate it if you could sort these 3 molecules by IC50, starting from the smallest number. Output the labels ranked as instructed.
Reply: R, P, Q
(R: 43 nM, P: 1800 nM, Q: 2840 nM)
